Data provenance: PubChem BioAssay (NCI)

experiment: NCI Yeast Anticancer Drug Screen. Data for the mlh1 rad18 strain (AID 175); details: S. cerevisiae mlh1 rad18 strain growth inhibition; at 50.0 µM; active compounds read high
The panel holds about 79,000 compounds, 15% with a hit somewhere; the sample as a whole holds those more often.
Property: growth inhibition (%)
Note: unit % is implicit; provide only the numeric part.

For O=C1C(/C=C/c2ccc(Cl)cc2)=NNC2N1N=C1NC(=O)C3(NN12)c1ccccc1-c1ccccc13 (centres undefined) , what is its reported growth inhibition? 87.7

Also, "CN(C)CC(CN(C)C)C(=O)/C=C/c1ccc(Cl)cc1Cl" please. 45

Also, NC(=S)N/N=C1\c2ccccc2CCC1CCC1(O)CCc2ccccc2C1=O (centres undefined) please. 93.3

Also, COC(=O)C(Cc1c[nH]c2ccccc12)N1CN(C)c2ccccc2C1=O (centres undefined) please. 95.8

Also, "ClCCCOc1c(Cl)cc(Cl)cc1Cl" please. 27.1

Also, "CCN(CC)CCNc1ccc2ncn3c4ccc(O)cc4c(=O)c1c23" please. 64.7

Also, C=CC(C)(C)N1C(=O)C(C(C)=O)=C(O)C1Cc1c[nH]c2ccccc12 (centres undefined) please. 68.5

Also, CC12CCC(CC(=O)/C1=C(/Br)I)C2(C)C (centres undefined) please. 83.2

Also, "CO[C@@]1([C@@H](Cl)c2ccccc2)C(=O)N(C)/C(=C\c2ccccc2)C(=O)N1C" please. 9

Also, "C=CCNC1=C2C[C@@H](C)C[C@H](OC)[C@H](O)[C@@H](C)/C=C(\C)[C@H](OC(N)=O)[C@@H](OC)/C=C\C=C(/C)C(=O)NC(=CC1=O)C2=O" please. 89.1

Also, "OC(c1ccccc1)(c1ccccc1)c1nccc2ccccc12" please. 51

Also, "CN(N=O)C(=O)Nc1ccc(C(=O)O)cc1" please. 32.9

Also, "COc1ccc(/C=C2\SC(=S)N(/C=C3\C(=O)N(c4ccccc4)N=C3C)C2=O)cc1OC" please. 76.2

Also, "COC(=N)c1ccc(O)c(C)c1" please. -6.9

Also, OC1(c2ccccc2)C2CC=CC2C1(c1ccccc1)c1ccccc1 (centres undefined) please. 0.45

Also, "Cc1ccc(S(=O)(=O)NC(=O)C2C(=O)CC3(CCCCC3)CC2=O)cc1" please. -61.4

Also, "Oc1ccc(N=Nc2ccc(Cl)cc2)cc1" please. 99.4

Also, "C1=CCN([B-](c2ccccc2)[C+]2CCCCC2)C=C1" please. 96.5

Also, "CC(C)=CCC/C(C)=C/CN1C(=O)C=CC1=O" please. 99.3

Also, "Cc1ccc([N+](=O)[O-])c2c(NCCC[N+](C)(C)[O-])c3ccccc3nc12" please. 45.1

Also, "CSC(=S)N/N=C/c1ccccc1" please. 89.5

Also, "Fc1ccc(Nc2ccc3ccccc3c2)cc1" please. 93.5

Also, "C/C(=N/NC(=S)Nc1ccccc1C)c1ccccn1" please. 86.5

Also, "O=S1(=O)CCC2=CC(C(F)(F)F)=CC(C(F)(F)F)=CN21" please. 97.2

Also, "Brc1ccc(B2Nc3ccccc3N2)cc1" please. 82.5

Also, "CCOC(=S)SSSC(=S)OCC" please. 27.2

Also, CCN1CCC(O)(c2ccc(Oc3ccc(Cl)cc3)cc2)C(C(=O)c2ccc(Oc3ccc(Cl)cc3)cc2)C1 (centres undefined) please. 90.5

Also, CC1=CN2C(c3ccccc3)=NON(c3ccc(C)cn3)C2C=C1 (centres undefined) please. 1.65

Also, "CCS(=O)(=O)Nc1ccc(Nc2c3ccccc3nc3ccccc23)c(OC)c1" please. 36

---

assay: NCI Yeast Anticancer Drug Screen. Data for the sgs1 strain (AID 173);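 further: 0% = growth of vehicle-only control cultures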; details: S. cerevisiae sgs1 mutant, at 1.2 µM, active compounds read high
This is part of a sample that, as a whole, favours compounds with a hit. Of some 79,000 tested, about 15% had one in any assay. Residues, ends and D or L forms follow the SMILES beside them. *: point of attachment. Fmoc = O=C(OCC1c2ccccc2-c2ccccc21)*; Boc = CC(C)(C)OC(=O)*
Property: growth inhibition (%)
Note: unit % is implicit; provide only the numeric part.

For O=C1SS(=O)c2ccccc21 (stereo not given) , what is its reported growth inhibition? -7

Also, COC1=CCC23C(=O)C=CC(=O)C2(C1)C(=O)c1ccccc1C3=O (stereo not given) please. 10

Also, "CCOC(=S)SSSC(=S)OCC" please. 0

Also, CC(C)(C)OC(=O)NCCCCC(NC(=O)C(Cc1c[nH]c2ccccc12)NC(=O)OCC1c2ccccc2-c2ccccc21)C(=O)O (stereo not given) (Fmoc-Trp-Lys(Boc)-OH; configuration not given here) please. -1

Also, "O=C(O)C(=Cc1ccc(-c2ccccc2)cc1)C(=O)O" please. 3

---

Kindly supply the reported growth inhibition values for the records listed here.
Assay: NCI Yeast Anticancer Drug Screen. Data for the bub3 strain (AID 167)
Conditions: S. cerevisiae bub3 mutant strain, at 100.0 µM, active compounds read high
Experimental: Growth inhibition of yeast strains with defined genetic alterations is measured as a screen for potential anti-cancer activity. Selected strains with alterations in DNA damage repair or cell cycle control were exposed to compounds and growth inhibition was measured relative to vehicle treated controls. The strain used in this assay is bub3
About 79,000 compounds went through this panel and 15% of them were active in at least one assay; those are over-represented in the sample as a whole.
Note: unit % is implicit; provide only the numeric part.

For CC(C)(CN1CCCCC1)C(=O)CC(SCCS(=O)(=O)O)c1ccccc1 (stereo unspecified) , what is its reported growth inhibition? 13

Also, CC(C)C(=O)CC(Sc1ccc(N)cc1)c1ccccc1 (stereo unspecified) please. 92

Also, O=C1CSC(c2ccccc2)N1c1ccc(-c2ccc(-n3c(-c4ccccc4)nc4ccccc4c3=O)cc2)cc1 (stereo unspecified) please. 59

Also, "CC1(C)OC(=O)C(=Cc2ccc([N+](=O)[O-])s2)C(=O)O1" please. 5

Also, COc1ccc2cc(C(C)C(=O)N3CCOC3=O)ccc2c1 (stereo unspecified) please. 40

Also, "CC1(C2CC2)C(C#N)(C#N)C1(C#N)C#N" please. 84

Also, "CCC(=O)Nc1ccc(N=NN(C)C)cc1" please. 90

Also, "O=S1(=O)CCC2=CC(C(F)(F)F)=CC(C(F)(F)F)=CN21" please. 98

Also, "Cc1cc(C)c2[s+]snc2c1" please. 30

Also, "COc1c2c(c3c(c1CCC(=O)O)OC(C)(C)C=C3)OC(C)(C)C=C2" please. 97

Also, CCN1CCC(O)(c2ccc(Oc3ccc(C)cc3)cc2)C(C(=O)c2ccc(Oc3ccc(C)cc3)cc2)C1 (stereo unspecified) please. 95

---

experiment: NCI Yeast Anticancer Drug Screen. Data for the mlh1 rad18 strain (AID 175); conditions: S. cerevisiae mlh1 rad18 strain growth inhibition; at 50.0 µM (retest, dose inferred, filed as 5.0); active compounds read high
About 79,000 compounds went through this panel and 15% of them were active in at least one assay; those are over-represented in the sample as a whole.
Property: growth inhibition (%)
Note: unit % is implicit; provide only the numeric part.

For "O=C(C(Cl)=C(N1CCCCC1)N1CCCCC1)C(Cl)Cl" , what is its reported growth inhibition? 99

Also, COC(=O)C(Cc1c[nH]c2ccccc12)N1CN(C)c2ccccc2C1=O (configuration not stated) please. 75

Also, "COC(=O)/C(C#N)=C\NC(=S)C(N)=S" please. 98

Also, "CCOC(=O)Nc1ccc(C)c(NC(=O)OCC)c1" please. 78

Also, O=C(O)c1ccccc1C(=O)OC1CCc2ccccc2C1 (configuration not stated) please. 33

Also, "CS(=O)(=O)O.[Ag]" please. 100

Also, "O=C(NCCCCN(CCCNC(=O)C(F)(F)F)Cc1ccccc1)C(F)(F)F" please. 24

Also, "CC1=NN(C(=O)c2ccccc2O)C(=O)/C1=C/c1ccco1" please. 94

Also, "CC1=C(C)C(=O)C2=C(OCCO2)C1=O" please. 50

Also, "CCCCOc1ccc2nc(C)cc(N=[N+]=[N-])c2c1" please. 93

Also, "O=C(CCCN1CCC(Nc2ccc(F)cc2)(c2nnnn2C2CCCCC2)CC1)c1ccc(F)cc1" please. 41

Also, "O=[N+]([O-])c1ccc2[nH]c3c(-c4ccccc4)nccc3c2c1" please. 96

---

Kindly supply the reported growth inhibition values for the records listed here.
experiment: NCI Yeast Anticancer Drug Screen. Data for the wt2 strain (AID 169);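 further: 0% = growth of vehicle-treated yeast cultures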; conditions: S. cerevisiae wt2 strain growth inhibition; at 11.0 µM; active compounds read high
About 79,000 compounds went through this panel and 15% of them were active in at least one assay; those are over-represented in the sample as a whole.
Note: unit % is implicit; provide only the numeric part.

For "O/N=c1/ccn(O)c2ccccc12" , what is its reported growth inhibition? 20

Also, "Cc1cccc2c(Cl)c3cccc(C)c3nc12" please. -2

Also, "CCOC(=O)C(Cc1c2ccccc2cc2ccccc12)(NC(C)=O)C(=O)OCC" please. -4

Also, "COC(=O)C(Cl)(Cl)N=Nc1c(Cl)cc(Cl)c(C)c1Cl" please. 99

Also, "CCCCCCNCCCNc1c2ccccc2nc2cccc([N+](=O)[O-])c12" please. 5

Also, "CN(N=O)C(=O)Nc1ccc(C(=O)O)cc1" please. -1
